Origin of values: PubChem BioAssay (NCI)

Quick reference: growth inhibition of the listed items.
Assay: NCI Yeast Anticancer Drug Screen. Data for the bub3 strain (AID 167)
Conditions: S. cerevisiae bub3 mutant strain, at 50.0 µM, active compounds read high
The panel holds about 79,000 compounds, 15% with a hit somewhere; the sample as a whole holds those more often.
Reply numerically in %, unit not repeated.

// below: answered compounds
CCc1cccc(C)c1NC(=O)C(=O)CC(=O)CCCO	0.05
COc1cc(NC(N)=O)ccc1Nc1c2ccc(N)cc2nc2cc(N)ccc12	-14.9
COc1ccc2nc3ccccc3c(NCCCN(C)C)c2c1[N+](=O)[O-]	-13.3
CCOC(=O)NN(C(=O)OCC)c1c(NN)n(C)c(=O)n(C)c1=O	12.4
O=NSC(c1ccccc1)(c1ccccc1)c1ccccc1	-9.25
CN(C)/C(=N/C(=O)Nc1ccccc1)SCc1ccccc1	-9.1
O=C1CC(Cc2n[nH]c3c2CCC3)CC(=O)N1	-10
COc1ccccc1NC(=S)N/N=C/c1ccccn1	17.7
CC(C)(C)/[N+]([O-])=C/C1(C2(/C=[N+](\[O-])C(C)(C)C)Cc3ccccc3C2=O)Cc2ccccc2C1=O (stereo unspecified)	7.15
CCCCCCCCCCCCCCCC(=O)Oc1ccc(C(=S)N2CCOCC2)cc1	5.05

Prompt line: Item under review: CC(N)C(c1ccccc1)c1ccccc1 (stereo unspecified) . Reported growth inhibition?
Response line: 33.6

Prompt line: Now consider `COc1cc([N+](=O)[O-])c(OC)cc1Nc1ccccc1C(=O)O` and answer again.
Response line: 29.4

Prompt line: Now consider `Cc1ccc(S(=O)(=O)CCC(=O)c2ccc([N+](=O)[O-])cc2)cc1` and answer again.
Response line: 3.05
